System: RPMI-8226
METHOD_DESCRIPTION: NCI tumour cell line growth inhibition, 48 h
Active and inactive are the calls of the source. No stated cut-off is given here; in the data, active = GI50 up to about 1.1 µM and inactive = higher.
PROPERTY_LABEL: GI50

Recorded GI50 (compound CCOC(=O)C(NC(=O)CC)(Nc1ccc(S(=O)(=O)Nc2ccc(OC)nn2)cc1)C(F)(F)F (stereo unspecified) ): > 100 µM (inactive)

Recorded GI50 (compound O=c1[nH]c(=O)n(C2C(CO)OC(CO)C2O)cc1F (stereo unspecified) ): > 100 µM (inactive)

Recorded GI50 (compound `CCCCCCOc1ccc(NC2=C(Cl)C(=O)c3c(O)ccc(O)c3C2=O)cc1` ): 1.4 µM (inactive)

Recorded GI50 (compound `Cc1ccccc1C(=O)c1cc(O)ccc1O` ): > 100 µM (inactive)

Recorded GI50 (compound `COc1nc2c(OC)cccc2c(OC)c1C=O` ): > 100 µM (inactive)

Recorded GI50 (compound `COC(=O)/C=C/CC(=O)NS(C)(=O)=O` ): > 10 µM (inactive)

---

Test system: HT-29
METHOD_DESCRIPTION: NCI tumour cell line growth inhibition, 48 h
Calls of active or inactive are those of the source. No stated cut-off is given here; in the data, active = GI50 up to about 1.1 µM and inactive = higher.
PROPERTY_LABEL: GI50

Recorded GI50 (compound CCCCc1c2c(nc3c1CCCC3O)CCCC2 (centres undefined) ): 85.3 µM (inactive)

Recorded GI50 (compound `CC(=N/NC(=S)N1CCCCC1)/C(C)=N\NC(=S)N1CCCCC1` ): 1.93 µM (inactive)

Recorded GI50 (compound `C/C=C/C(=O)[C@@H](O)C(C)C` ): > 100 µM (inactive)

Recorded GI50 (compound `CC(C)(C)c1cc2c(O)c(c1)Cc1cc(C(C)(C)C)cc(c1O)Cc1cc(C(C)(C)C)cc(c1O)Cc1cc(C(C)(C)C)cc(c1O)Cc1cc(C(C)(C)C)cc(c1O)Cc1cc(C(C)(C)C)cc(c1O)Cc1cc(C(C)(C)C)cc(c1O)Cc1cc(C(C)(C)C)cc(c1O)C2` ): > 50 µM (inactive)

---

System: SNB-75
METHOD_DESCRIPTION: NCI tumour cell line growth inhibition, 48 h
Where a name gives a salt, the structure may show the parent alone. The source made the active and inactive calls. Rule as the data show it: active = GI50 up to about 1.1 µM and inactive = higher.
For each of the compounds below, state its GI50.

Recorded GI50 (compound CCC1(Br)C(=O)NC(=O)N(C2CC(O)C(CO)O2)C1N=[N+]=[N-] (stereo not given) ): > 100 µM (inactive)

Recorded GI50 (compound `COc1ccc(CCCCNCc2cccc(CNCCCCc3ccc(OC)cc3)c2)cc1` ): 1.76 µM (inactive)

Recorded GI50 (compound COc1ccccc1OCC(COC(=O)Nc1ccccc1)OC(=O)Nc1ccccc1 (stereo not given) ): 17.1 µM (inactive)

Recorded GI50 (compound `CN(C)c1ccc2cc3ccc(N(C)C)cc3nc2c1` ): 2.1 µM (inactive)

Recorded GI50 (compound `[O-][n+]1ccc(NO)c2ccccc21` ): 0.516 µM (active)

Recorded GI50 (compound CC(C)C[C@H]1C(=O)N2CCC[C@H]2[C@]2(O)O[C@](NC(=O)[C@@H]3C=C4c5cccc6[nH]c(Br)c(c56)C[C@H]4N(C)C3)(C(C)C)C(=O)N12 [BROMOCRIPTINE MESYLATE] ): 40.9 µM (inactive)

Recorded GI50 (compound CC1OC(O[C@@H]2OC=C(C=O)[C@@]3(O)CC[C@H](C)[C@@H]23)C(O)C(O)C1O (stereo not given in full) ): > 100 µM (inactive)

Recorded GI50 (compound `CCOC(=O)[C@@]1(C)C=C2O[C@@H]3OC4(CCCCC4)O[C@@H]3C2=C2C(O)=CC=C(O)[C@]21C(=O)OC` ): > 68.1 µM (inactive)

Recorded GI50 (compound `CCc1nc(N)nc(N)c1-c1ccc(NCCN)c([N+](=O)[O-])c1` ): 19.7 µM (inactive)

Recorded GI50 (compound `O=C(NNC(=S)Nc1cccc(Cl)c1)c1cc(-c2ccccc2)nc2ccccc12` ): 23.8 µM (inactive)

Recorded GI50 (compound `Oc1c(-c2ccccc2)nc2ccccn12` ): > 100 µM (inactive)

Recorded GI50 (compound `COc1ccc2c3c([nH]c(=O)c2c1C(=O)O)-c1ccccc1CC3` ): > 100 µM (inactive)

Recorded GI50 (compound `COc1cccc(-c2nc(O)c3ccccc3n2)c1OC` ): 46.1 µM (inactive)

Recorded GI50 (compound `CN(C)C(=S)/N=c1\ss/c(=N\C(=S)N(C)C)n1-c1cccc(Cl)c1` ): 36.6 µM (inactive)

Recorded GI50 (compound `O=C(C/N=C(\CN(c1ccccc1)c1ccccc1)Oc1c([N+](=O)[O-])cc([N+](=O)[O-])cc1[N+](=O)[O-])N1CCNCC1` ): 10.5 µM (inactive)

Recorded GI50 (compound `Clc1ccc(-c2c(C3=NCCCN3)nnn2-c2ccccc2)cc1` ): > 100 µM (inactive)

Recorded GI50 (compound `O=c1ccn([C@@H]2C=C(CO)[C@@H](O)[C@H]2O)c(=O)[nH]1` ): 90.4 µM (inactive)

Recorded GI50 (compound `O=C(O)CCNc1[nH]cnc2ncnc1-2` ): > 100 µM (inactive)

Recorded GI50 (compound `COc1ccc(NC(=O)CC(=O)n2nc(C)c(/N=N/c3ccc(C)c(C)c3)c2C)cc1` ): 39.2 µM (inactive)

Recorded GI50 (compound `CCOC(=O)C1=C(Nc2ccc(Cl)cc2Cl)OCC1=O` ): > 100 µM (inactive)
